Assay: NCI Yeast Anticancer Drug Screen. Data for the mlh1 rad18 strain (AID 175)
Details: S. cerevisiae mlh1 rad18 strain growth inhibition; at 50.0 µM; stronger effect = higher value
This is part of a sample that, as a whole, favours compounds with a hit. Of some 79,000 tested, about 15% had one in any assay.
quantity.kind: growth inhibition (%)
Numeric answer only, unit % assumed.

Problem: Could you tell me which growth inhibition is on file for O=C1Nc2ccccc2C12CNCS2 (centres undefined) ?
Solution: 8.2

Problem: Could you tell me which growth inhibition is on file for O=C1OC(=O)C2CC3C(CC12)C1(Cl)C(Cl)=C(Cl)C3(Cl)C1(Cl)Cl (centres undefined) ?
Solution: 3

Problem: Could you tell me which growth inhibition is on file for `Cn1cc([N+](=O)[O-])c([N+](=O)[O-])c1` ?
Solution: 0.85

Problem: Could you tell me which growth inhibition is on file for `O=Cc1ccccc1O.O=Cc1ccccc1O.[Cu]` ?
Solution: 92.6

====

Experiment: NCI Yeast Anticancer Drug Screen. Data for the mlh1 rad18 strain (AID 175)
Conditions: S. cerevisiae mlh1 rad18 strain growth inhibition; at 50.0 µM; stronger effect = higher value
This is part of a sample that, as a whole, favours compounds with a hit. Of some 79,000 tested, about 15% had one in any assay. Activity calls are given as the source filed them. No stated cut-off is given here; in the data, active means growth inhibition above about 70%; inactive means the rest.
quantity.kind: growth inhibition

Problem: Could you tell me which growth inhibition is on file for O=C(C/C(=N/O)C(=O)NC1=C(Cl)C(=O)c2ccccc2C1=O)CC(c1ccccc1)c1c(O)c2ccccc2oc1=O (centres undefined) ?
Solution: 87.6% (active)

Problem: Could you tell me which growth inhibition is on file for `CC(=O)C(I)C(C)=O.[Cr]` ?
Solution: 5.4% (inactive)

Problem: Could you tell me which growth inhibition is on file for `CC(C)(Br)[N+](=O)[O-]` ?
Solution: 1.8% (inactive)

Problem: Could you tell me which growth inhibition is on file for Oc1ccc(CC2NCCc3cc(O)c(O)cc32)cc1O (centres undefined) ?
Solution: 23.1% (inactive)

Problem: Could you tell me which growth inhibition is on file for `[Cu].[NH2-].[NH2-].[NH2-].[NH2-]` ?
Solution: -23.6% (inactive)

Problem: Could you tell me which growth inhibition is on file for `O=C(O)C(Oc1nc(=S)[nH]c(=S)[nH]1)(c1ccc(Cl)cc1)c1ccc(Cl)cc1` ?
Solution: -8.8% (inactive)

Problem: Could you tell me which growth inhibition is on file for CCOP(=O)(O)C1CCCC(C)[N-]1.CCOP(=O)(O)C1CCCC(C)[N-]1.CCOP(=O)(O)C1CCCC(C)[N-]1.[Ti+3] (centres undefined) ?
Solution: 2.6% (inactive)

Problem: Could you tell me which growth inhibition is on file for `N.N.N.N.N.NC(=O)c1nn[n-]n1.[Cl-].[Co+3]` ?
Solution: -17.1% (inactive)

Problem: Could you tell me which growth inhibition is on file for CC(O)C[As](=O)(O)c1cccc(Cl)c1 (centres undefined) ?
Solution: 39.5% (inactive)

Problem: Could you tell me which growth inhibition is on file for OC1[C@@H]2[C@@H](O)CCCN2C[C@@H](O)[C@H]1O (some centres undefined) ?
Solution: -28.1% (inactive)

Problem: Could you tell me which growth inhibition is on file for `CCc1cc(C)cc2[n+]1CC=C2C` ?
Solution: 14.5% (inactive)

Problem: Could you tell me which growth inhibition is on file for `Nc1ccc(C(=O)O)c([As](O)O)c1` ?
Solution: 0.65% (inactive)

Problem: Could you tell me which growth inhibition is on file for COc1cc(C2c3cc4c(cc3[C@@H](OC)[C@H]3COC(=O)C23)OCO4)cc(OC)c1O (some centres undefined) ?
Solution: 88.7% (active)

Problem: Could you tell me which growth inhibition is on file for `Cc1cccc(C)c1NC(N)=S` ?
Solution: 3.25% (inactive)
